These entries and their values trace back to PubChem BioAssay AID1996.

solubility kinetic: recorded values
Measurement conditions: buffer; pH 7.4; 200.0 µM

Please review the entries below; each comes with its answer.
COCCOC(=O)C1=C(C)NC(=O)NC1c1ccco1 (stereo not drawn) = > 42 µg/mL
CS(=O)(=O)N(CCc1ccccc1)CC(=O)N1CCCC1 = > 46.6 µg/mL
CSCCC(=O)Nc1nc(-c2ccccn2)cs1 = > 41.9 µg/mL
CCOc1ccc(N2C(=O)CC(=O)NC2=O)cc1 = > 37.2 µg/mL
COc1ccc(NC(=O)c2cc(F)c(F)cc2Cl)cc1Cl = < 0.7 µg/mL
O=S(=O)(Nc1ncccn1)c1ccccc1 = > 35.3 µg/mL

Using known records, supply solubility kinetic for N#CCC(=O)Nc1ccc(C(=O)OCC(=O)N2CCN(C(=O)c3ccco3)CC2)cc1
> 63.7 µg/mL

Using known records, supply solubility kinetic for O=C(CSc1ncccn1)Nc1cccc(S(=O)(=O)N2CCOCC2)c1
> 59.2 µg/mL

* * *

Measurement conditions: buffer; pH 7.4; 200.0 µM
Values of solubility kinetic greater than or equal to 30 µg/mL map to YES; values below map to NO.

COC(=O)CSc1nc(NC(C)C)nc(N(C)C)n1 = YES

Record CCOC(=O)NC(=O)CSc1nc2ccc([N+](=O)[O-])cc2[nH]1 ; criterion: solubility kinetic no lower than 30 µg/mL. Met?
NO

* * *

Measurement conditions: buffer; pH 7.4; 200.0 µM
Value kind: solubility kinetic

Please review the entries below; each comes with its answer.
Cc1ccc2c(c1)C1C3CCC(C3)C1S(=O)N2 (configuration not stated) = > 37.1 µg/mL
O=[N+]([O-])c1ccc(Sc2cccc3cccnc23)c2cccnc12 = < 0.2 µg/mL
CCOC(=O)N1CCN(CC(=O)Nc2sccc2C#N)CC1 = > 48.4 µg/mL
CCOc1ccccc1Nc1cc(C)nc2ccc(C)cc12 = > 43.9 µg/mL
COc1cc(CN2CCCCCC2)cc(OC)c1OC.O=C(O)C(=O)O = > 55.4 µg/mL
COc1ccc(NC(=O)Nc2cc(C(C)(C)C)on2)cc1OC = > 47.9 µg/mL
CC(=O)NC(CC(=O)OCC(=O)Nc1cc(S(=O)(=O)N2CCCCC2)ccc1C)c1ccccc1 (configuration not stated) = > 75.2 µg/mL
Cc1nc(SCC(=O)N2CCCCCC2)[nH]c(=O)c1C = > 44.3 µg/mL

Using known records, supply solubility kinetic for Cn1cnc(S(=O)(=O)Nc2ccc(OC(F)F)cc2)c1
> 45.5 µg/mL

Using known records, supply solubility kinetic for CC(=O)c1ccc(NC(=O)C(C)Sc2nnc(-c3ccncc3)n2C2CC2)cc1 (configuration not stated)
> 61.1 µg/mL

Using known records, supply solubility kinetic for Cc1cc(C)n2nc(SCC(=O)N3CCCC3)nc2n1
> 43.7 µg/mL

Using known records, supply solubility kinetic for CC(=O)N1CCN(C(=O)c2oc3ccccc3c2C)CC1
> 42.9 µg/mL

Using known records, supply solubility kinetic for Cc1ccc(Cn2ccsc2=NC(=O)COC(=O)C(C)C)cc1
45.3 µg/mL

Using known records, supply solubility kinetic for Nc1nc(SCC(=O)N2CCOCC2)[nH]c(=O)c1-c1ccccc1
> 52 µg/mL

Using known records, supply solubility kinetic for CN(C)S(=O)(=O)c1ccc(C(=O)/C=C/c2cccnc2)cc1
3.3 µg/mL

Using known records, supply solubility kinetic for CCOc1ncccc1C(=O)OCC(=O)Nc1cc(C(C)(C)C)ccc1OC
1.5 µg/mL

Using known records, supply solubility kinetic for Cn1cc(S(=O)(=O)c2ccccc2)n(C)c1=O
31 µg/mL

Using known records, supply solubility kinetic for C=CCn1c(SCC(=O)Nc2c(C)n(C)n(-c3ccccc3)c2=O)nnc1-c1cccnc1
> 69.2 µg/mL

Using known records, supply solubility kinetic for O=c1[nH]cccc1-c1nc2ccccc2n1Cc1ccc(F)cc1
47.7 µg/mL

Using known records, supply solubility kinetic for O=C(O)/C=C\C(=O)Nc1ccc(F)c(F)c1F
34.3 µg/mL

Using known records, supply solubility kinetic for O=C1CN(C(=O)COC(=O)[C@@H]2CC(O)CN2S(=O)(=O)c2ccc(Cl)cc2)c2ccccc2N1 (some centres not stated)
> 74.1 µg/mL

Using known records, supply solubility kinetic for Cc1ccoc1C(=O)N1CCN(C(=O)c2occc2C)CC1
> 45.3 µg/mL

Using known records, supply solubility kinetic for CC(C)n1c(=S)[nH]c2cc(C(F)(F)F)ccc21
9.1 µg/mL

Using known records, supply solubility kinetic for COc1cc(C)c(S(=O)(=O)NOCc2ccc([N+](=O)[O-])cc2)c(C)c1C
< 0.4 µg/mL

Using known records, supply solubility kinetic for O=C(CN1CCOCC1)Nc1cc(C(F)(F)F)ccc1Cl
39.2 µg/mL

* * *

log10 solubility kinetic: recorded values
Measurement conditions: buffer; pH 7.4; 200.0 µM
Use the decimal logarithm of solubility kinetic (µg/mL).

Please review the entries below; each comes with its answer.
O=C(NC1CCCCCC1)C1CCN(S(=O)(=O)c2cnc[nH]2)CC1 = 1.71
NC(=O)c1ccc(SCC(=O)NC2CCCCC2)c([N+](=O)[O-])c1 = 1.17
CC1(C)CC2CC(C)(CN2C(=S)Nc2ccccc2F)C1 (configuration not stated) = 1.64
Cc1ccc(Oc2ncnc(N)c2[N+](=O)[O-])cc1C = 0.68
CC12CC3CC(C)(C1)CC(N)(C3)C2.Cl = 1.47

Using known records, supply log10 solubility kinetic for O=C(O)c1ncsc1-c1ccccc1
1.46

Using known records, supply log10 solubility kinetic for CCOC(=O)c1sc(NC(=O)CN2CCN(c3ccc(OC)cc3)CC2)nc1C
1.18

Using known records, supply log10 solubility kinetic for Cc1cc(OCc2cccc(Cl)c2)c(C)cc1CN1CCOCC1
0.00

Using known records, supply log10 solubility kinetic for Oc1ccccc1N1CCN(c2ccc3ccccc3n2)CC1
0.62

Using known records, supply log10 solubility kinetic for O=S(=O)(NCCC1CC1(Cl)Cl)c1ccc(Cl)cc1 (configuration not stated)
1.66

* * *

Measurement conditions: buffer; pH 7.4; 200.0 µM
solubility kinetic: recorded values

Please review the entries below; each comes with its answer.
CSCCC1NC(=O)N(CC(=O)Nc2ccc3c(c2)OCCO3)C1=O (stereo not given) = > 54.8 µg/mL
CCC(=O)Nc1nc(NCc2ccccc2OC)n(-c2ccccc2)n1 = > 52.7 µg/mL

Using known records, supply solubility kinetic for CCCc1nnc(SCC(=O)NC2CC2)n1C
> 38.2 µg/mL

Using known records, supply solubility kinetic for CCCNC(=O)COc1ncnc2sccc12
> 37.7 µg/mL

Using known records, supply solubility kinetic for CC(=Nc1ccccc1O)c1sc2ccccc2c1O
< 0.6 µg/mL

* * *

Measurement conditions: buffer; pH 7.4; 200.0 µM
Value kind: solubility kinetic

Please review the entries below; each comes with its answer.
Brc1cc(Br)cc(CN2CCSCC2)c1 = < 0.8 µg/mL
CC(=O)Nc1ccc(S(=O)(=O)NC(C)(C#N)C2CC2)cc1 (stereo not drawn) = > 46.1 µg/mL

Turning now to a further compound:
Using known records, supply solubility kinetic for CC(NC(=O)CCc1c[nH]c2ccccc12)c1ccccc1 (stereo not drawn)
> 43.9 µg/mL

* * *

solubility kinetic: recorded values
Measurement conditions: buffer; pH 7.4; 200.0 µM
Unit µg/mL implied. Number only.

Please review the entries below; each comes with its answer.
CN(C)c1ccc(C(=O)OCC(=O)Nc2cccc(S(=O)(=O)N3CCCC3)c2)cc1 = 5.5
O=C(COC(=O)c1ccccc1)NC1CCCCCC1 = 39.7

Using known records, supply solubility kinetic for Cc1onc(-c2ccccc2)c1CNC(=O)Nc1ccc(C(F)(F)F)cc1
0.4

Using known records, supply solubility kinetic for NC(=O)C1CCN(S(=O)(=O)c2ccccc2[N+](=O)[O-])CC1
39.8

Using known records, supply solubility kinetic for Cc1ccc(CSc2nsc(C)c2C#N)cc1
3.3

Using known records, supply solubility kinetic for O=C(Nc1ccc(Cl)c(Cl)c1)NC1CCS(=O)(=O)C1 (stereo not drawn)
43.9

Using known records, supply solubility kinetic for O=C(COC(=O)COc1cc(Cl)c(Cl)cc1Cl)NC1CC1
23.6

* * *

solubility kinetic: recorded values
Measurement conditions: buffer; pH 7.4; 200.0 µM

O=C(CCC(=O)c1cccs1)NCc1ccncc1 = > 0.0412 mg/mL
CCOC(=O)N1CCN(C(=O)c2ccccc2NC(C)=O)CC1 = > 0.0479 mg/mL
Cc1nn(C)c(C)c1NC(=O)c1ccc(Br)o1 = > 0.0447 mg/mL
NC(=O)C1(N2CCCCC2)CCN(Cc2nc(-c3cccs3)no2)CC1 = > 0.0563 mg/mL

Using known records, supply solubility kinetic for O=C(CCCn1cc([N+](=O)[O-])cn1)NCc1ccccc1
> 0.0432 mg/mL

Using known records, supply solubility kinetic for Cn1cnnc1SCC(=O)NC1CCCC1
> 0.036 mg/mL

Using known records, supply solubility kinetic for CC(=O)CC(=O)Nc1ccc(C(N)=O)cc1
> 0.033 mg/mL

Using known records, supply solubility kinetic for CN(CC(=O)NCCc1ccc(S(N)(=O)=O)cc1)CC(=O)Nc1ccccc1C(F)(F)F
> 0.0709 mg/mL

Using known records, supply solubility kinetic for COc1ccc(C(=O)OCC(=O)NC(=O)NC(C)C)cc1OC
> 0.0486 mg/mL

Using known records, supply solubility kinetic for O=C(O)c1ccc2c(c1)C(=O)N(c1cccc3ccccc13)C2=O
> 0.0476 mg/mL

Using known records, supply solubility kinetic for Cc1ccnc(NC(=O)COC(=O)c2ccc(F)cc2F)n1
> 0.0461 mg/mL

Using known records, supply solubility kinetic for Cc1cc(C)cc(NS(=O)(=O)c2csc(C(N)=O)c2)c1
> 0.0466 mg/mL

Using known records, supply solubility kinetic for COc1ccc(OC)c(S(=O)(=O)NCc2ccccn2)c1
> 0.0463 mg/mL
